# test.description: rescue of nicotinamide-shortened yeast lifespan – S. cerevisiae, OD615, primary screen (AID 775);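 also: 0% = nicotinamide-treated wells and 100% = cells grown without nicotinamide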
# measurement.setup: S. cerevisiae growth with nicotinamide, at 10 µM, hits give high values, deaD strain in restrictive glucose medium
About 900 (0.69%) of roughly 130,000 compounds were called active. For the sample, actives were picked, then their nearest neighbours and some compounds at random.
value.kind: inhibition of the nicotinamide effect (%)
Number in %, nothing else.

Reference set (4 entries):
Reported inhibition of the nicotinamide effect for `COC(=O)c1ccc(NC(=O)Nc2ccc(C)cc2)cc1` was -13.6

Reported inhibition of the nicotinamide effect for `COc1cc(OC)c(-n2c(C)cc(C=O)c2C)cc1Cl` was 39.8

Reported inhibition of the nicotinamide effect for CCC1=NN(C(=O)Cc2ccc([N+](=O)[O-])cc2)C(O)(c2ccc(Br)cc2)C1 (stereo not given) was 3.83

Reported inhibition of the nicotinamide effect for `Cc1cccc(OP(=O)(Nc2c(C)n(C)n(-c3ccccc3)c2=O)Oc2cccc(C)c2)c1` was 0

Here is the next item to consider.
Reported inhibition of the nicotinamide effect for `COc1cc(OC)c(-n2cc(-c3ccc(Cl)cc3)[nH]c2=O)cc1Cl` was -0.64

====

# test.description: rescue of nicotinamide-shortened yeast lifespan – S. cerevisiae, OD615, primary screen (AID 775);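 also: 0% = nicotinamide-treated wells and 100% = cells grown without nicotinamide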
# measurement.setup: S. cerevisiae growth with nicotinamide, at 10 µM, hits give high values, deaD strain in restrictive glucose medium
In all, about 130,000 compounds went through this assay and about 900 (0.69%) were called active. This excerpt belongs to a sample that is enriched for actives.
inhibition of the nicotinamide effect values by entry
Number in %, nothing else.

Reported inhibition of the nicotinamide effect for CC1CC(C)CN(S(=O)(=O)c2cccc(C(=O)N3C(=O)c4cccc(N)c4C3=O)c2)C1 (configuration not stated) was 86.5

Reported inhibition of the nicotinamide effect for CCn1nc(C(=O)OCC(=O)N2c3ccccc3CC2C)c2ccccc2c1=O (configuration not stated) was -14.7

Reported inhibition of the nicotinamide effect for COc1ccc(NC(=O)/C(Cl)=C(/Cl)S(=O)Cc2ccc(C)cc2)cn1 (configuration not stated) was 45.5

Reported inhibition of the nicotinamide effect for `O=C(c1cccc(S(=O)(=O)N2CCOCC2)c1)N1CCOCC1` was 4.86

Reported inhibition of the nicotinamide effect for `COC(=O)c1ccccc1OCC(=O)N1CCN(c2ccc(Cl)cc2)CC1` was -19.3

Reported inhibition of the nicotinamide effect for `Cc1cc(C(=O)NNC(=S)Nc2ccccc2C)cs1` was 4.51

Others:
Reported inhibition of the nicotinamide effect for `NS(=O)(=O)c1ccc(CNC(=O)c2ccc(Cl)cc2[N+](=O)[O-])cc1` was 3.9

Reported inhibition of the nicotinamide effect for `COc1ccc(CNc2ccc3c(c2)CCC3)cc1OC` was -10.1

Reported inhibition of the nicotinamide effect for `CCN(CC)c1ccc([N+](=O)[O-])cc1C(=O)O` was 4.32

Reported inhibition of the nicotinamide effect for `N#Cc1ccc(N2Cc3ccccc3/C2=N/C(=O)Nc2ccc(Cl)cc2)cc1` was -2.85

Reported inhibition of the nicotinamide effect for `CCN(CC(=O)NCCc1ccccc1)S(=O)(=O)c1ccc(C)cc1` was 5.67

Reported inhibition of the nicotinamide effect for O=C(NC(CC(=O)N1CCN(c2ccccc2)CC1)c1ccccc1)c1ccccc1Cl (configuration not stated) was 35.4

====

# test.description: rescue of nicotinamide-shortened yeast lifespan – S. cerevisiae, OD615, primary screen (AID 775);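 also: 0% = nicotinamide-treated wells and 100% = cells grown without nicotinamide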
# measurement.setup: S. cerevisiae growth with nicotinamide, at 10 µM, hits give high values, deaD strain in restrictive glucose medium
Out of some 130,000 compounds screened, about 900 (0.69%) were called active. The full list was thinned out, with actives kept by preference.
inhibition of the nicotinamide effect values by entry

Reported inhibition of the nicotinamide effect for `Cc1ccc2c(CC(=O)NCc3cccs3)coc2c1` was -1.73% (inactive)

Reported inhibition of the nicotinamide effect for `COc1ccc(/C=C(/CC(=O)Nc2ccc(C)cc2)c2nc3ccccc3s2)cc1` was -0.84% (inactive)

Others:
Reported inhibition of the nicotinamide effect for `O=C(/C=C/c1cccc([N+](=O)[O-])c1)NCCSCc1ccco1` was -4.01% (inactive)

====

# test.description: rescue of nicotinamide-shortened yeast lifespan – S. cerevisiae, OD615, primary screen (AID 775);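 also: 0% = nicotinamide-treated wells and 100% = cells grown without nicotinamide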
# measurement.setup: S. cerevisiae growth with nicotinamide, at 10 µM, deaD strain in restrictive glucose medium
Out of some 130,000 compounds screened, about 900 (0.69%) were called active.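 How the source made its calls: active means inhibition above a set limit, placed 3 SD over the median of all compounds (cut at about 26% in these data); inactive means the rest.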 For the sample, actives were picked, then their nearest neighbours and some compounds at random.
Choose one outcome from this list and give only that: active, inactive

Consider the following illustrative entries.
So what was the verdict on `C/C(=N/NC(=O)c1ccc(Br)o1)c1ccc(C)o1` in this test?
inactive

So what was the verdict on `CCCCSc1[nH]c(=O)c(C(=O)OCC)cc1C#N` in this test?
active

So what was the verdict on `COc1cc(/C=N\NC(=O)c2nonc2N)c(OC)cc1Br` in this test?
inactive

So what was the verdict on `Cc1cc(=O)[nH]c(SCC(N)=O)c1C#N` in this test?
inactive

So what was the verdict on `Cc1csc(NC(=S)Nc2cccc(Cl)c2)n1` in this test?
inactive

So what was the verdict on `O=C(Nc1cccc([N+](=O)[O-])c1)c1ccc2c(c1)OCO2` in this test?
inactive

Others:
So what was the verdict on `Oc1ccc(Cl)cc1/C=N/c1nc2ccccc2[nH]1` in this test?
inactive

So what was the verdict on `Oc1ccc(Br)cc1C=Nc1ccc2[nH]ncc2c1` in this test?
active

So what was the verdict on `Cc1cc(C=O)c(C)n1-c1ccc(NC2CCCCC2)c([N+](=O)[O-])c1` in this test?
inactive

So what was the verdict on `COc1ccc(/C=N/NC(=O)c2ccc(Cl)cc2)cc1COC(C)=O` in this test?
inactive

So what was the verdict on `CC(=O)c1cc(C#N)c(SCC(=O)C(C)(C)C)nc1C` in this test?
inactive

So what was the verdict on `S=C(Nc1cccc(Cl)c1)Nc1ccc2cn[nH]c2c1` in this test?
active

====

# test.description: rescue of nicotinamide-shortened yeast lifespan – S. cerevisiae, OD615, primary screen (AID 775);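 also: 0% = nicotinamide-treated wells and 100% = cells grown without nicotinamide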
# measurement.setup: S. cerevisiae growth with nicotinamide, at 10 µM, hits give high values, deaD strain in restrictive glucose medium
Out of some 130,000 compounds screened, about 900 (0.69%) were called active. The list comes from a sample in which actives are over-represented; it also holds close analogues and randomly drawn compounds.
inhibition of the nicotinamide effect values by entry
Number in %, nothing else.

Reference set (10 entries):
Reported inhibition of the nicotinamide effect for CCn1ncc(CNC(=O)C2(C)CC2(Br)Br)c1C (stereo not drawn) was 9.74

Reported inhibition of the nicotinamide effect for `O=C(O)c1cccc(N2C(=O)Nc3ccccc3N2O)c1` was 4.66

Reported inhibition of the nicotinamide effect for `Cc1ccc(OCCOCCOc2ccc(Br)cc2/C=N\NC(=O)c2ccncc2)cc1` was -1.41

Reported inhibition of the nicotinamide effect for `CC(=O)c1c(O)cc2n(c1=O)-c1ccc(Cl)cc1C2(C)C` was 50.9

Reported inhibition of the nicotinamide effect for `COCCn1c(=O)[nH]c(=O)c2cc(C(=O)c3cc(OC)ccc3O)cnc21` was -5.05

Reported inhibition of the nicotinamide effect for `O=C1Nc2cc(Cl)c(Cl)cc2N(O)N1c1cc(Cl)cc(Cl)c1` was 110

Reported inhibition of the nicotinamide effect for `CCc1ccc2c(c1)C(c1ccc([N+](=O)[O-])cc1)=NNC(c1ccccc1)=N2` was -1.67

Reported inhibition of the nicotinamide effect for `CNC(=O)/C(C#N)=C/c1c(F)cccc1Cl` was 43.1

Reported inhibition of the nicotinamide effect for `N#C/C(=C\c1ccccc1C(F)(F)F)C(=O)Nc1ccccc1F` was 6.56

Reported inhibition of the nicotinamide effect for `CCCCCOc1ccc(/C=C/C(=O)NCCc2nc3ccccc3[nH]2)cc1OC` was 3.92

Others:
Reported inhibition of the nicotinamide effect for `CCOc1ncccc1C(=O)N(C)CC(=O)Nc1ccc(F)cc1` was 0.31

Reported inhibition of the nicotinamide effect for `CCCn1c(=O)c2c(C(F)(F)F)cc(-c3cccs3)nc2n(CCC)c1=O` was 3.84

Reported inhibition of the nicotinamide effect for `Cc1cccc(NC(=O)/C=C/c2ccc3c(c2)OCO3)n1` was -5.25

====

# test.description: rescue of nicotinamide-shortened yeast lifespan – S. cerevisiae, OD615, primary screen (AID 775);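 also: 0% = nicotinamide-treated wells and 100% = cells grown without nicotinamide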
# measurement.setup: S. cerevisiae growth with nicotinamide, at 10 µM, hits give high values, deaD strain in restrictive glucose medium
Out of some 130,000 compounds screened, about 900 (0.69%) were called active. Many of the other results were omitted from the sample, so actives are more common in it than they were.
value.kind: inhibition of the nicotinamide effect (%)
Number in %, nothing else.

Reference set (3 entries):
Reported inhibition of the nicotinamide effect for `O=C(/C=C\NCC(=O)c1ccccc1)c1ccccc1` was 3.73

Reported inhibition of the nicotinamide effect for `Cc1cc(O)ccc1NC1=CC(=O)CC(C)(C)C1` was 11.5

Reported inhibition of the nicotinamide effect for `O=C(O)c1cccc2c1C(=O)N(C1CCCCC1)C2` was 63.7

Others:
Reported inhibition of the nicotinamide effect for COC(=O)c1ccccc1SC1CC(=O)N(c2cccc(C)c2)C1=O (configuration not stated) was -3.77

Reported inhibition of the nicotinamide effect for `O=C(/C=C/NCc1ccc(F)cc1)c1ccccc1` was 26.6
